Recorded values, source patent US20190330224A1.

Collected IC50 values appear next to each entry.
- experimentalSystem: Fungal ACC2 (UniProt Q00955)
- Sequence (Q00955 whole entry): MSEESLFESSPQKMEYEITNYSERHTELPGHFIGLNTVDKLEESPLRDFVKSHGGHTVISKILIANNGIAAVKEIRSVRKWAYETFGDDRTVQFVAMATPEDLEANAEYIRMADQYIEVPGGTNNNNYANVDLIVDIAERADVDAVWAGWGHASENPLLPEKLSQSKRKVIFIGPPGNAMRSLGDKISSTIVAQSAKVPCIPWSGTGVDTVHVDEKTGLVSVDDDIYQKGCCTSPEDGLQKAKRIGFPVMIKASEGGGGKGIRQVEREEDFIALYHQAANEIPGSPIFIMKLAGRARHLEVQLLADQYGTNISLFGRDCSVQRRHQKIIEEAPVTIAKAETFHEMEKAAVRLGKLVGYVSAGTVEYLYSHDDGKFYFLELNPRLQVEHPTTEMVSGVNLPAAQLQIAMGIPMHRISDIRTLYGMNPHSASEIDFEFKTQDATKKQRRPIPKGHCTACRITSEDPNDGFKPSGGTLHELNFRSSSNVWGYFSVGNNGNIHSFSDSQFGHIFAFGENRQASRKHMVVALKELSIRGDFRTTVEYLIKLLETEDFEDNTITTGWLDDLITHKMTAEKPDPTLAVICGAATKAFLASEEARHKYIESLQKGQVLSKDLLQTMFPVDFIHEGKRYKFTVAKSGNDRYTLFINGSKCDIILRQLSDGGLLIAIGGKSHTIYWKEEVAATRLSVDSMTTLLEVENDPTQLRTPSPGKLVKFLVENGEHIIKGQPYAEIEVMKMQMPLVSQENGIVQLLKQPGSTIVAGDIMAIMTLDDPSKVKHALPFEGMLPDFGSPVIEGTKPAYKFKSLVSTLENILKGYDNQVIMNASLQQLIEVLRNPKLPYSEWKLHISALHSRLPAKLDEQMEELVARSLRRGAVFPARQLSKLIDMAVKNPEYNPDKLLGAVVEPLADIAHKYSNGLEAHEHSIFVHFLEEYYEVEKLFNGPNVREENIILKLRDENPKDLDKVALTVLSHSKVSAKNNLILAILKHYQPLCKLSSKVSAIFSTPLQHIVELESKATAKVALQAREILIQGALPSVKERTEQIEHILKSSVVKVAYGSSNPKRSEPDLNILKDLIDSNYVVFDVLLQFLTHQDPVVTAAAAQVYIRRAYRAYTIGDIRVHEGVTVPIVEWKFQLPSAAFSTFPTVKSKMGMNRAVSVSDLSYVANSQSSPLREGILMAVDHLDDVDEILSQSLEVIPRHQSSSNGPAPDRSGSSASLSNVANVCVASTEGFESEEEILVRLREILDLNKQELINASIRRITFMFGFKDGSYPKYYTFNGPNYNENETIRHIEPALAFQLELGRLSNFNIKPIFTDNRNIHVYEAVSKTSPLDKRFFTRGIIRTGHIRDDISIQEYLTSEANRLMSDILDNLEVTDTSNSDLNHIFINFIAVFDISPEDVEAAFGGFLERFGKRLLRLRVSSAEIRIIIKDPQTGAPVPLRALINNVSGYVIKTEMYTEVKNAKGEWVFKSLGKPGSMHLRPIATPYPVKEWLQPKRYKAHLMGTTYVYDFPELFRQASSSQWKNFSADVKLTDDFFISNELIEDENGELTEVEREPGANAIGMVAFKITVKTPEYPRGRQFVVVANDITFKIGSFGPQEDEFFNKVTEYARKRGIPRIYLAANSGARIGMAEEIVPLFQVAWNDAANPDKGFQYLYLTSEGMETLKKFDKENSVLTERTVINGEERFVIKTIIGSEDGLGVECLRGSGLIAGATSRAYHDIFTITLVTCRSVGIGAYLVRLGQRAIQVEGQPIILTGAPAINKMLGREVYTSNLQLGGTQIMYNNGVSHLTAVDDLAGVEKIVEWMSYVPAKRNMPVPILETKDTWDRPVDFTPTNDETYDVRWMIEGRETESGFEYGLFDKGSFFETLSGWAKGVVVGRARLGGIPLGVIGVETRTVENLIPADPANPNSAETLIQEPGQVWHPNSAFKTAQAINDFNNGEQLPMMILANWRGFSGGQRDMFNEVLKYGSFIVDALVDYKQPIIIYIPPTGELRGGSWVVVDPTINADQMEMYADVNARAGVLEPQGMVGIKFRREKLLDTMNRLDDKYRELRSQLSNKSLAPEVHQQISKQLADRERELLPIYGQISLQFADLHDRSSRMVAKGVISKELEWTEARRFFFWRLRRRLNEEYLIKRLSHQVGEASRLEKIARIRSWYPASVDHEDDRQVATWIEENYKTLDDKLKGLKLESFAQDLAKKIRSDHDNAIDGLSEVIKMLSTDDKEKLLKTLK

Worked cases, answers included:
[[record]]
compoundstructurestring = "COc1ccc(F)cc1[C@H](Cn1c(=O)n([C@H]2CCN(C)C2=O)c(=O)c2c(C)c(-n3nccn3)sc21)O[C@H]1CC[C@@H](O)CC1"
result = "2 to 10 nM"

[[record]]
compoundstructurestring = "COCCO[C@@H](Cn1c(=O)n([C@@]2(C)CNC(=O)C2)c(=O)c2c(C)c(-n3nccn3)sc21)c1cc(F)ccc1OC"
result = "2 to 10 nM"

[[record]]
compoundstructurestring = "COc1ccc(F)cc1[C@H](Cn1c(=O)n([C@@]2(C)CCC(=O)N(C)C2)c(=O)c2c(C)c(-n3nccn3)sc21)OCCO"
result = "0.7 to 2 nM"

[[record]]
compoundstructurestring = "COc1ccc(F)cc1[C@H](Cn1c(=O)n([C@H]2CCN(C)C2=O)c(=O)c2c(C)c(-n3cccn3)sc21)O[C@H]1CC[C@@H](O)CC1"
result = "0.7 to 2 nM"

[[record]]
compoundstructurestring = "COc1ccc(F)cc1[C@H](Cn1c(=O)n([C@H]2CCNC2=O)c(=O)c2c(C)c(-c3ncco3)sc21)OCCO"
result = "2 to 10 nM"


Look up and state reported IC50 for COCCO[C@@H](Cn1c(=O)n([C@@H]2CNC(=O)C2)c(=O)c2c(C)c(-n3nccn3)sc21)c1cc(F)ccc1OC
0.7 to 2 nM
